measured on: T1, human serum albumin (human, UniProt P02768 25-609)
T1 construct: mature; Bought protein; biotinylated in the Octet and HTRF assays; also called HSA; HuSA
measurement description: Octet biolayer interferometry, biotinylated albumin on SA sensors, pH 7.4
endpoint name: kon (M⁻¹ s⁻¹)
Numbers only, in M⁻¹ s⁻¹.

Would you be so kind as to report kon for each listed record?
1. HSA-36 (designed binder) MIPRGLSEAKPATPEIQEIVDKVKPQLEEKTNETYGKLEAVQYKTQVLAGHYARYWPGSTNYYIKVRAGDNKYMHLKVFNGPWAQKSKVHQADRVLTGYQVDKNKDDELTGFHHHHHH
2. HSA-31 (designed binder) MIPRGLSEAKPATPEIQEIVDKVKPQLEEKTNETYGKLEAVQYKTQVLAVWGPEYQHQSTNYYIKVRAGDNKYMHLKVFNGPNAGWPLVPEADRVLTGYQVDKNKDDELTGFHHHHHH
3. HSA-20 (designed binder) MIPRGLSEAKPATPEIQEIVDKVKPQLEEKTNETYGKLEAVQYKTQVLAGYWAAKWPGSTNYYIKVRAGDNKYMHLKVFNGPFPNTSYDLQADRVLTGYQVDKNKDDELTGFHHHHHH
4. HSA-41 (designed binder, also called HSA-41 parent; HSA-41 AH parent) MIPRGLSEAKPATPEIQEIVDKVKPQLEEKTNETYGKLEAVQYKTQVLANFFQRRWPGSTNYYIKVRAGDNKYMHLKVFNGPWKFRNTDRGADRVLTGYQVDKNKDDELTGFHHHHHH

[18900, 208000, 128000, 379000]
